assayTarget: NK2 (Homo sapiens, UniProt P21452)
Sequence (P21452 whole entry): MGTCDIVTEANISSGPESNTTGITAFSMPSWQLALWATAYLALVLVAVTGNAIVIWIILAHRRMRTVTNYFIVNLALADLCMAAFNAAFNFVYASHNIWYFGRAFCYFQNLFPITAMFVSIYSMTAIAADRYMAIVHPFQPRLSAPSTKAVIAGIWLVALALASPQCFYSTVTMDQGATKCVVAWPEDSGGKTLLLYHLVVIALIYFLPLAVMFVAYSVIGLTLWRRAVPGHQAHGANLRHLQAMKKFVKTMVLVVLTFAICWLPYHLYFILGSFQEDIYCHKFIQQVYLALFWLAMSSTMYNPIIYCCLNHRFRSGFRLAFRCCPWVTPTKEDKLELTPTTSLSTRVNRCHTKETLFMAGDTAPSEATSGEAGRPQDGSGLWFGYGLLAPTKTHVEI
assayName: Signal transduction (ST), intracellular Ca++ (FLIPR), NK2
Type: cell-based
assayContext: antagonist, read-out: NK2 pIC50 (converted)
readoutType: IC50

CC(=O)Nc1ccc(S(=O)(=O)N2CCC3(CCN([C@H]4CCN(C(=O)c5cc(C(F)(F)F)cc(C(F)(F)F)c5)[C@H](Cc5ccccc5)C4)CC3)CC2)cc1 | ~2.57 µM

O=C(C1CCOC1)N1CCC2(CC1)CCN(C(=O)[C@H]1CCN(C(=O)c3cc(C(F)(F)F)cc(C(F)(F)F)c3)[C@H](Cc3ccccc3)C1)CC2 (stereo partly drawn) has a reported IC50 of 7.08 µM

The measured IC50 associated with O=C(c1cc(C(F)(F)F)cc(C(F)(F)F)c1)N1CC[C@H](N2CCC3(CC2)CCN(S(=O)(=O)c2ccc(Cl)cc2Cl)CC3)C[C@H]1Cc1ccccc1 reads > 10 µM
